So I've got a bunch of compounds here, and I need their Rice, Water Seeded plant response rating values.
Test system: water seeded rice seedlings (Oryza sativa cv. ‘Japonica-M202’)
Assay method text: Test E flooded paddy water application
Assay type: in vivo
Particulars: 125 g ai/ha; Flood; 21 days; scale 0 to 100 (0 no effect, 100 complete control)
Give bare numbers.

# count of solved cases: 8
[[record]]
smiles_structure = "CCOC(=O)c1nc(-c2ccc(F)cc2)nc(N)c1Br"
readout_value = 20

[[record]]
smiles_structure = "CCOC(=O)c1nc(-c2ccc(Cl)cc2)nc(N)c1Cl"
readout_value = 0

[[record]]
smiles_structure = "COC(=O)c1nc(-c2ccc(Br)cc2)nc(N)c1Cl"
readout_value = 10

[[record]]
smiles_structure = "COC(=O)c1nc(-c2ccc(Br)cc2)nc(N)c1Br"
readout_value = 0

[[record]]
smiles_structure = "CCOC(=O)c1nc(-c2ccc(Br)cc2)nc(N)c1Cl"
readout_value = 10

[[record]]
smiles_structure = "CCOC(=O)c1nc(-c2ccc(Cl)cc2Cl)nc(N)c1Cl"
readout_value = 0

[[record]]
smiles_structure = "CCOC(=O)c1nc(-c2ccc(Cl)cc2)nc(N)c1Br"
readout_value = 0

[[record]]
smiles_structure = "CCOC(=O)c1nc(-c2ccc(C)c(C)c2)nc(N)c1Br"
readout_value = 0


Here's the next entry for you.
What Rice, Water Seeded plant response rating appears in the records for this compound with water seeded rice seedlings (Oryza sativa cv. ‘Japonica-M202’)? CCOC(=O)c1nc(-c2ccc3c(c2)OCO3)nc(N)c1Cl 0

====

Tested on: Surinam grass (Brachiaria decumbens)
Assay method text: Test B pre/postemergence
Format: in vivo
Particulars: Postemergence, 125 g ai/ha; scale 0 to 100 (0 no effect, 100 complete control)
Experimental: […] At the same time, plants selected from these crop and weed species and also blackgrass (Alopecurus myosuroides) and wild oat (Avena fatua) were treated with postemergence applications of test chemicals formulated in the same manner. […] Treated plants and controls were maintained in a greenhouse for 13 to 15 days, after which time all species were compared to controls and visually evaluated. […]
Provide the reported Surinam Grass plant response rating of each item.
Answers are plain numbers.

[[record]]
smiles_structure = "COC(=O)c1nc(-c2ccc(F)cc2)nc(N)c1Br"
readout_value = 10

[[record]]
smiles_structure = "COC(=O)c1nc(-c2ccc(I)cc2)nc(N)c1Br"
readout_value = 40

[[record]]
smiles_structure = "CC=NNc1nc(C2CC2)nc(C(=O)OC)c1Br"
readout_value = 0

[[record]]
smiles_structure = "CCOC(=O)c1nc(-c2ccc(I)cc2)nc(N)c1Cl"
readout_value = 70

[[record]]
smiles_structure = "COC(=O)c1nc(-c2ccc(Br)cc2)nc(N)c1Br"
readout_value = 70

[[record]]
smiles_structure = "CCOC(=O)Cc1nc(C2CC2)nc(N=CN(C)C)c1Br"
readout_value = 0

[[record]]
smiles_structure = "Nc1nc(-c2ccc(Cl)cc2)nc(C(=O)O)c1Br"
readout_value = 80

[[record]]
smiles_structure = "COC(OC)c1nc(C2CC2)nc(N)c1F"
readout_value = 0

[[record]]
smiles_structure = "CN(C)N=Cc1nc(C2CC2)nc(N)c1Br"
readout_value = 20

[[record]]
smiles_structure = "CCOC(=O)c1nc(C2CC2)nc(NOCC(=O)O)c1Br"
readout_value = 0


Param item = CCOC(=O)c1nc(C2CC2)nc(NOCc2ccccc2)c1Br ; retrieve measured Surinam Grass plant response rating. 0

====

Kindly supply the reported Plant response rating, Corn values for the records listed here.
Test system: corn (Zea mays)
Assay method text: Test B pre/postemergence
Assay type: in vivo
Particulars: Preemergence, 62 g ai/ha; scale 0 to 100, 0 no effect, 100 complete control
One number for each entry.

[[record]]
compound = "CCOC(=O)C(Cl)c1nc(C2CC2)nc(N)c1Br (stereo not shown)"
study_target = "corn (Zea mays)"
readout_value = 0

[[record]]
compound = "COC(=O)c1nc(-c2ccc(I)cc2)nc(N)c1Br"
study_target = "corn (Zea mays)"
readout_value = 0


Hi there! I need Plant response rating, Corn for each item below, if you can.
1. COC(=O)c1nc(-c2ccc(Cl)cc2)nc(N)c1Br
2. CCCCOC(=O)c1nc(C2CC2)nc(N)c1Cl

1. 0
2. 70

====

System: velvetleaf (Abutilon theophrasti)
Assay method text: Test A pre/postemergence
Assay type: in vivo
Particulars: Abutilon theophrasti, pre-emergence, 240 h, Preemergence, 500 g ai/ha; 0 to 100 scale where 0 is no effect and 100 is complete control; approximately ten days; read-out: Plant response rating, Velvetleaf
Quantity kind: pest or weed control at 500 g/ha (%)
Answers are plain numbers, in %.

// known answers, use as guide
[[record]]
molecule = "CCOC(=O)c1nc(-c2ccc3c(c2)OCO3)nc(N)c1Cl [Compound 74]"
readout_value = 50

[[record]]
molecule = "CCOC(=O)c1nc(C(C)C)nc(N)c1Cl [Compound 108]"
readout_value = 50

[[record]]
molecule = "CNc1nc(C2CC2)nc(C(=O)OC)c1Cl [Compound 79]"
readout_value = 90


Given the entry Nc1nc(C2CC2)nc(C(=O)OCc2ccccc2)c1Cl [Compound 78] , report its measured pest or weed control at 500 g/ha. 85

====

Tested on: johnsongrass (Sorghum halepense)
Assay method text: Test C pre/postemergence
Assay type: in vivo
Particulars: Preemergence, 125 g ai/ha; scale 0 to 100
Consider the following compounds; for each one, report its Plant response rating, Johnsongrass.
Give bare numbers.

[[record]]
smiles_structure = "CCCCOC(=O)c1nc(C2CC2)nc(N)c1Br"
readout_value = 65

[[record]]
smiles_structure = "CCCOC(=O)c1nc(C2CC2)nc(N)c1Cl"
readout_value = 55

[[record]]
smiles_structure = "COC(=O)Cc1nc(C2CC2)nc(N)c1Br"
readout_value = 5


# next compound below
Name the reported Plant response rating, Johnsongrass value associated with the compound CCCOC(=O)c1nc(C2CC2)nc(N)c1Br 65

====

Test system: ducksalad (Heteranthera limosa)
Assay method text: Test E flooded paddy water application
Format: in vivo
Particulars: 32 g ai/ha; Flood; 21 days; scale 0 to 100 (0 no effect, 100 complete control)
Quantity kind: Ducksalad plant response rating

Solved cases (4 shown):
[[record]]
smiles_structure = "CCOC(=O)c1nc(-c2ccc(C)cc2)nc(N)c1Br"
quantity_kind = "Ducksalad plant response rating"
readout_value = 100

[[record]]
smiles_structure = "CCOC(=O)c1nc(-c2ccc(C)c(C)c2)nc(N)c1Cl"
quantity_kind = "Ducksalad plant response rating"
readout_value = 100

[[record]]
smiles_structure = "COC(=O)c1nc(-c2ccc(Br)cc2)nc(N)c1Br"
quantity_kind = "Ducksalad plant response rating"
readout_value = 100

[[record]]
smiles_structure = "CCOC(=O)c1nc(-c2ccc3c(c2)OCO3)nc(N)c1Cl"
quantity_kind = "Ducksalad plant response rating"
readout_value = 100


Shifting focus to the molecule that follows.
Suppose we examine the molecule Nc1nc(-c2ccc(Br)cc2)nc(C(=O)O)c1Cl ; what Ducksalad plant response rating value has been reported? 100

====

I'd be grateful if you could share measured Corn plant response rating for these entries.
Test system: corn (Zea mays)
Assay method text: Test B pre/postemergence
Type: in vivo
Particulars: Postemergence, 62 g ai/ha; scale 0 to 100 (0 no effect, 100 complete control)
Numbers only.

Some compounds with recorded Corn plant response rating:
[[record]]
compound = "CCCOC(=O)c1nc(C2CC2)nc(N)c1Cl"
study_target = "corn (Zea mays)"
quantity_kind = "Corn plant response rating"
readout_value = 60

[[record]]
compound = "CCOC(OCC)c1nc(C2CC2)nc(N)c1Br"
study_target = "corn (Zea mays)"
quantity_kind = "Corn plant response rating"
readout_value = 0

[[record]]
compound = "Nc1nc(-c2ccc(Cl)cc2)nc(C(=O)O)c1Br"
study_target = "corn (Zea mays)"
quantity_kind = "Corn plant response rating"
readout_value = 70

[[record]]
compound = "CCOC(=O)C(Cl)c1nc(C2CC2)nc(N)c1Br (centres unmarked)"
study_target = "corn (Zea mays)"
quantity_kind = "Corn plant response rating"
readout_value = 0


Proceed to the following item.
What measured Corn plant response rating goes with COC(=O)c1nc(-c2ccc(Br)cc2)nc(N)c1Br ? 70

====

Tested on: junglerice (Echinochloa colona)
Assay method text: Test E flooded paddy water application
Assay type: in vivo
Particulars: 250 g ai/ha; Flood; 21 days; scale 0 to 100 (0 no effect, 100 complete control)
Quantity kind: Junglerice plant response rating
Answers are plain numbers.

[[record]]
compound = "Nc1nc(-c2ccc(Cl)cc2)nc(C(=O)OCc2ccccc2)c1Cl [Compound 118]"
quantity_kind = "Junglerice plant response rating"
readout_value = 65

[[record]]
compound = "CCOC(=O)c1nc(-c2ccc(C)cc2)nc(N)c1Cl [Compound 62]"
quantity_kind = "Junglerice plant response rating"
readout_value = 50

[[record]]
compound = "CCOC(=O)c1nc(-c2ccc(Br)cc2)nc(N)c1Cl [Compound 94]"
quantity_kind = "Junglerice plant response rating"
readout_value = 0

[[record]]
compound = "CCOC(=O)c1nc(-c2ccc(F)cc2)nc(N)c1Br [Compound 63]"
quantity_kind = "Junglerice plant response rating"
readout_value = 30

[[record]]
compound = "CCOC(=O)c1nc(-c2ccc(OC)cc2)nc(N)c1Cl [Compound 98]"
quantity_kind = "Junglerice plant response rating"
readout_value = 0

[[record]]
compound = "CCOC(=O)c1nc(-c2ccc3c(c2)OCO3)nc(N)c1Cl [Compound 74]"
quantity_kind = "Junglerice plant response rating"
readout_value = 65


Pending compound:
Record request: Junglerice plant response rating value, item CCOC(=O)c1nc(-c2ccc(Cl)c(Cl)c2)nc(N)c1Br [Compound 66] 0
